Data provenance: paper PMC10397247

Target: T1, P2-AA-12HAA-K
T1 chain: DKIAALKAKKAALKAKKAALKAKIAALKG
Test: two-hybrid library CCmax;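 further: natural log of median RNA to DNA barcode read ratio; higher means stronger binding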
Settings: mean of both orientations
attribute measured: interaction score

Exercise: Would you kindly share the measured interaction score for DEIAALEAESAALEAESAALEAEIAALEG [P1-AA-12HAA-S] ?
Key: 0.951

Exercise: And the next one, DEIAALEAEEAALEAEEAALEAEIAALEG [P1-AA-12HAA-E] ?
Key: 1.62

Exercise: And the next one, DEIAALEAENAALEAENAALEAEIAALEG [P1-AA] ?
Key: 1.32

Exercise: And the next one, DEIAALEAEVAALEAEVAALEAEIAALEG [P1-AA-12HAA-V] ?
Key: 1.35

Exercise: And the next one, DEIAALEAEYAALEAEYAALEAEIAALEG [P1-AA-12HAA-Y] ?
Key: 1.89

Exercise: And the next one, DEIAALEAEHAALEAEHAALEAEIAALEG [P1-AA-12HAA-H] ?
Key: 0.96

Exercise: And the next one, DEIAALEAEDAALEAEDAALEAEIAALEG [P1-AA-12HAA-D] ?
Key: 0.46

Exercise: And the next one, DEIAALEAEKAALEAEKAALEAEIAALEG [P1-AA-12HAA-K] ?
Key: -1.33

Exercise: And the next one, DEIAALEAEAAALEAEAAALEAEIAALEG [P1-AA-12HAA-A] ?
Key: 1.48

Exercise: And the next one, DEIAALEAEIAALEAEIAALEAEIAALEG [P1-AA-12HAA-I] ?
Key: 1.78

Exercise: And the next one, DEIAALEAERAALEAERAALEAEIAALEG [P1-AA-12HAA-R] ?
Key: -0.626

Exercise: And the next one, DEIAALEAELAALEAELAALEAEIAALEG [P1-AA-12HAA-L] ?
Key: 1.6

Exercise: And the next one, DEIAALEAETAALEAETAALEAEIAALEG [P1-AA-12HAA-T] ?
Key: 1.37
